Listing of entries alongside the reported IC50.
Target: Tyrosine-protein kinase JAK3 (Homo sapiens)
Sequence (P52333 whole entry, the tested form may be a part): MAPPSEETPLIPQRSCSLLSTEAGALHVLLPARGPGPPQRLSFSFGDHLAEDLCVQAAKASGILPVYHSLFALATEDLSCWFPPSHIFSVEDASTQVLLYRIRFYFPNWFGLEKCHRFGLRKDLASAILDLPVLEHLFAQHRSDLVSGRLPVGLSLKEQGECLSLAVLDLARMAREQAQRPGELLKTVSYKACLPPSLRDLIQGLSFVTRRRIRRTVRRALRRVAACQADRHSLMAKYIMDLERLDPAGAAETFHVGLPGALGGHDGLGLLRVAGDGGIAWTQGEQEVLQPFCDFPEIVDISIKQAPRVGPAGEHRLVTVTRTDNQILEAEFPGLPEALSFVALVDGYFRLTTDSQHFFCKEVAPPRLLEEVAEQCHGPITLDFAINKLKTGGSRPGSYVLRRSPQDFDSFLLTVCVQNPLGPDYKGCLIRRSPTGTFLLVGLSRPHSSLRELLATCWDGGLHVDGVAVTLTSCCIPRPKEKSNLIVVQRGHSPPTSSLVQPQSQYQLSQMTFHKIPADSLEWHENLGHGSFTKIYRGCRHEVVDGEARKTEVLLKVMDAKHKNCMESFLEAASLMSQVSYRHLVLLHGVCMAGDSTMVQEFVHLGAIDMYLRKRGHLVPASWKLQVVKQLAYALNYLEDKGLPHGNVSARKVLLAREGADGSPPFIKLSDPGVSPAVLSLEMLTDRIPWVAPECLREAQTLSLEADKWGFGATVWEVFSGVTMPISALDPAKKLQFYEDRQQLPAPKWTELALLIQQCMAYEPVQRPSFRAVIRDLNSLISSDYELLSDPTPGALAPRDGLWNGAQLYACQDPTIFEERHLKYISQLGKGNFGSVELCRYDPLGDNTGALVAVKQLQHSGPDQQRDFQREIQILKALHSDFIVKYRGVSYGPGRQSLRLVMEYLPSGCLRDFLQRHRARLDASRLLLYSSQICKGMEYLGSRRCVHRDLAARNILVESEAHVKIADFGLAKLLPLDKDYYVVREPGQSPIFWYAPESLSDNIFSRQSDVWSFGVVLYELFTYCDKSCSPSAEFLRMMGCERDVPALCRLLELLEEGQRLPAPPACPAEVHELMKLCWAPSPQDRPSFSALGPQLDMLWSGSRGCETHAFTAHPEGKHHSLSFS
Assay: Inhibition of recombinant human GST-tagged cytoplasmic JAK3 catalytic domain (781 to 1124 residues) expressed in baculovirus expression system using FITC-KGGEEEEYFELVKK as substrate in presence of 1 mM ATP by microfluidic assay

{"columns": ["COMPOUND", "CENSORING SIGN", "IC50 [nM]"],
 "data": [
  ["C=CC(=O)N1CCC[C@@H](N(C)c2ncnc3[nH]ccc23)C1", "=", 3840],
  ["C=CC(=O)N1CCC[C@@H](Nc2ncnc3[nH]ccc23)C1", "=", 56],
  ["C=CC(=O)N1CC[C@@H](C)[C@@H](N(C)c2ncnc3[nH]ccc23)C1", "=", 1930],
  ["C/C=C/C(=O)N1CCC[C@@H](Nc2ncnc3[nH]ccc23)C1", ">", 10000],
  ["C=CC(=O)N1CCC[C@@H](Nc2ncnc3[nH]ccc23)[C@H]1C (racemic)", ">", 1000],
  ["C=CC(=O)Nc1cccc(-c2ncnc3[nH]ccc23)c1", "=", 29],
  ["CC(=O)N1CC[C@H]2CCN(c3ncnc4[nH]ccc34)[C@H]2C1", ">", 10000]
]}

###

Biological target: Tyrosine-protein kinase JAK1 (Homo sapiens, UniProt P23458)
Sequence (P23458 whole entry, the tested form may be a part): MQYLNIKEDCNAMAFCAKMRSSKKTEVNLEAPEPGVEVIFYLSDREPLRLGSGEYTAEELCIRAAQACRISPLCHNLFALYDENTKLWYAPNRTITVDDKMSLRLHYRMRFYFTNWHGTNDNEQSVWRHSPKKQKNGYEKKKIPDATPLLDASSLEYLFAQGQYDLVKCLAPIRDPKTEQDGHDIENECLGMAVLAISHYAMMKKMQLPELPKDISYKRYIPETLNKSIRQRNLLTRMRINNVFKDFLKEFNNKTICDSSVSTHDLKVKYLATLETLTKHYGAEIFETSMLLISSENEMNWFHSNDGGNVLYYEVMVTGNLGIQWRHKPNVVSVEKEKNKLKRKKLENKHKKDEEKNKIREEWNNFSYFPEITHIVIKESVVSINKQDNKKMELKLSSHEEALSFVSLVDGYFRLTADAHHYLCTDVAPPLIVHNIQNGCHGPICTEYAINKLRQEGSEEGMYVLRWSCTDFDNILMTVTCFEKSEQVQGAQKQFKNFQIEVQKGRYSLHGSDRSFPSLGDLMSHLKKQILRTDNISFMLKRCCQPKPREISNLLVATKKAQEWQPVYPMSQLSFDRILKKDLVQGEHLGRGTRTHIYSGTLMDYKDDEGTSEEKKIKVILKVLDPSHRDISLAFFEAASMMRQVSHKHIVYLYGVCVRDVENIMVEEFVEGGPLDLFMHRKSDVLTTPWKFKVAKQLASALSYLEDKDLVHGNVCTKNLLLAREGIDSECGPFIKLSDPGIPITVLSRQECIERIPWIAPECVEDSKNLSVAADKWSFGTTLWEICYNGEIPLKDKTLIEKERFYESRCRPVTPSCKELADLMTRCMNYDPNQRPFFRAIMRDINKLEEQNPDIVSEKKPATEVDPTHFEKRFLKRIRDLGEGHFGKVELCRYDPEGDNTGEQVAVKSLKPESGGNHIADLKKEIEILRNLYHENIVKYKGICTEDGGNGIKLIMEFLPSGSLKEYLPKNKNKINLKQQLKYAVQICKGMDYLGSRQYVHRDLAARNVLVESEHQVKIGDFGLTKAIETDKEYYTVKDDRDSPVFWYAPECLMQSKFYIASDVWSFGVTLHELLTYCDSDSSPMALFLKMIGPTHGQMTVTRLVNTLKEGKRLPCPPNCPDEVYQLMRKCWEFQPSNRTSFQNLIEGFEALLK
Assay: Inhibition of recombinant human GST-tagged cytoplasmic JAK1 catalytic domain (866 to 1154 residues) expressed in baculovirus expression system using 5FAM-KKSRGDYMTMQID as substrate in presence of 40 uM ATP by microfluidic assay
pIC50: −log10 of the molar value.
Listing of entries alongside the reported pIC50.

{"columns": ["SMILES RECORD", "pIC50"],
 "data": [
  ["C=CC(=O)N1CC[C@H]2CCN(c3ncnc4[nH]ccc34)[C@H]2C1", 6.01],
  ["C=CC(=O)N1CCC[C@@H](N(C)c2ncnc3[nH]ccc23)C1", 5.94],
  ["C=CC(=O)Nc1cccc(-c2ncnc3[nH]ccc23)c1", 6.02],
  ["C=CC(=O)N1CC[C@@H](C)[C@@H](N(C)c2ncnc3[nH]ccc23)C1", 6.56],
  ["C=CC(=O)N1CCC[C@@H](Nc2ncnc3[nH]ccc23)C1", 5.85],
  ["CC(=O)N1CC[C@H]2CCN(c3ncnc4[nH]ccc34)[C@H]2C1", 6.06],
  ["C/C=C/C(=O)N1CCC[C@@H](Nc2ncnc3[nH]ccc23)C1", 5.64]
]}

###

Test: Oral bioavailability in mouse
Type: ADME, organism-based
Details: in vivo

{"columns": ["COMPOUND", "UNIT OF MEASUREMENT", "bioavailability"],
 "data": [
  ["C=CC(=O)N1C[C@H](Nc2ncnc3[nH]ccc23)CC[C@@H]1C [RITLECITINIB]", "%", 62]
]}

###

Parameter: Papp. Scope: all listed entries.
Experiment: Permeability in RRCK cells
Format: ADME, cell-based, Canis lupus familiaris, MDCKII-LE
Conditions: dog, MDCK; read-out: permeability
MEASURE: Papp (×10⁻⁶ cm/s)

{"columns": ["COMPOUND", "MEASUREMENT"],
 "data": [
  ["CC(=O)N1CC[C@H]2CCN(c3ncnc4[nH]ccc34)[C@H]2C1", 16],
  ["C=CC(=O)N1CCC[C@@H](Nc2ncnc3[nH]ccc23)C1", 8],
  ["C=CC(=O)N1CC[C@H]2CCN(c3ncnc4[nH]ccc34)[C@H]2C1", 20],
  ["C=CC(=O)N1C[C@H](Nc2ncnc3[nH]ccc23)CC[C@@H]1C [RITLECITINIB]", 15]
]}
